Entry source: paper PMC6061170

system.name: dopamine D2 receptors (Rattus norvegicus)
Sequence (P61169 1-415 isoform P61169-2): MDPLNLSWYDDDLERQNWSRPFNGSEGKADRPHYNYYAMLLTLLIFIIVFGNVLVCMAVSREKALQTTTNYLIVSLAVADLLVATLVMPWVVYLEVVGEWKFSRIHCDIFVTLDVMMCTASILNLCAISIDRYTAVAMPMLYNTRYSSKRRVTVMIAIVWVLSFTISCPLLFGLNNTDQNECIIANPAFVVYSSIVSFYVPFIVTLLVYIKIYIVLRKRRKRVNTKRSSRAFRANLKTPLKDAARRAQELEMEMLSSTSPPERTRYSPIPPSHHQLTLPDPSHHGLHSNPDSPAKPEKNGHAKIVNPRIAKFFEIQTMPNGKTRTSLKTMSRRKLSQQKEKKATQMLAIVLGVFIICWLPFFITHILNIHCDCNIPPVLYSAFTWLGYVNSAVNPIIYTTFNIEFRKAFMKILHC
test.name: Radioligand binding assay, D2 receptors
condition.notes: rat brain tissues; read-out: D2 Ki [nM] ± SEM
In this section, each of the compounds is paired with its reported Ki.
Number only, in nM; omit the unit.

Solved cases (3 shown):
INSERT INTO assay_data (compound, measure, measurement_unit, experimental_value) VALUES
  ('O=C(NC1CC2CCC(C1)N2Cc1cccnc1)c1ccc2ccccc2n1 (stereo not shown) [Compound 12p]', 'Ki', 'nM', 1090),
  ('COc1cc(C(=O)NC2CC3CCC(C2)N3Cc2cccc(C)c2)nc2ccccc12 (stereo not shown) [Compound 12h]', 'Ki', 'nM', 503),
  ('Nc1ccc(CN2C3CCC2CC(NC(=O)c2ccc4ccccc4c2)C3)cc1 (stereo not shown) [Compound 19c]', 'Ki', 'nM', 136);

Exercise: Please look up its Ki: Cc1cccc(CN2C3CCC2CC(NC(=O)c2cnc4ccccc4c2)C3)c1 (stereo not shown) [Compound 12f]
Key: 546

Exercise: So what's the measured Ki for this one? Nc1cccc(CN2C3CCC2CC(NC(=O)c2ccc4ccccc4c2)C3)c1 (stereo not shown) [Compound 19b]
Key: 312

Exercise: Suppose we examine the compound Cc1ccccc1CN1C2CCC1CC(NC(=O)c1cnc3ccccc3c1)C2 (stereo not shown) [Compound 12b] ; what Ki value has been reported?
Key: 326

Exercise: // lookup Ki for Cc1ccccc1CN1C2CCC1CC(NC(=O)c1ccc3ncccc3c1)C2 (stereo not shown) [Compound 12c]
Key: 254

* * *

system.name: serotonin 5-HT2A receptors (Rattus norvegicus, UniProt P14842)
Construct: from tissue; host or cells: rat brain tissues
Sequence (P14842 whole entry): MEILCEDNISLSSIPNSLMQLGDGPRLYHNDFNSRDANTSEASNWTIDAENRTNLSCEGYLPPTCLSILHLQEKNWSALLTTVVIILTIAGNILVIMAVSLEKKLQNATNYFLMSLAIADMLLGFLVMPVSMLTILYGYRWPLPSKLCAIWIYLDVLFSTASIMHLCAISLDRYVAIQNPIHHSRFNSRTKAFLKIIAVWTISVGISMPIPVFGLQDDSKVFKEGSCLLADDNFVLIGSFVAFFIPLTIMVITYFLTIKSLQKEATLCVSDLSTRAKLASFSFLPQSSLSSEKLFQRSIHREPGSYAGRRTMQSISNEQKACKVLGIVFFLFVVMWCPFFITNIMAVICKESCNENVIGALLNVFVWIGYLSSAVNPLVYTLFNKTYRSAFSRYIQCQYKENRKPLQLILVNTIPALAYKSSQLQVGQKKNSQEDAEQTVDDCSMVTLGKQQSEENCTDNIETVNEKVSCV
test.name: Radioligand binding assay, 5-HT2A receptors
condition.notes: rat brain tissues; read-out: 5-HT2A IC50 [nM] ± SEM
measure: IC50

INSERT INTO measurements (molecule, measure, experimental_value) VALUES
  ('Cc1cccc(CN2C3CCC2CC(NC(=O)c2ccc4ncccc4c2)C3)c1 (stereo not drawn) [Compound 12g]', 'IC50', '> 10000 nM'),
  ('COc1cc(C(=O)NC2CC3CCC(C2)N3Cc2cccc(C)c2)nc2ccccc12 (stereo not drawn) [Compound 12h]', 'IC50', '> 10000 nM');

Note: attention shifts to another entry.
Exercise: Can you share its IC50? I mean this molecule: Cc1cccc(CN2C3CCC2CC(NC(=O)c2ccc4ccccc4n2)C3)c1 (stereo not drawn) [Compound 12e]
Key: > 10000 nM

* * *

Ki values for the compounds below.
system.name: serotonin 5-HT1A receptors (Rattus norvegicus)
Construct: from tissue; host or cells: rat brain tissues
Sequence (P19327 1-422): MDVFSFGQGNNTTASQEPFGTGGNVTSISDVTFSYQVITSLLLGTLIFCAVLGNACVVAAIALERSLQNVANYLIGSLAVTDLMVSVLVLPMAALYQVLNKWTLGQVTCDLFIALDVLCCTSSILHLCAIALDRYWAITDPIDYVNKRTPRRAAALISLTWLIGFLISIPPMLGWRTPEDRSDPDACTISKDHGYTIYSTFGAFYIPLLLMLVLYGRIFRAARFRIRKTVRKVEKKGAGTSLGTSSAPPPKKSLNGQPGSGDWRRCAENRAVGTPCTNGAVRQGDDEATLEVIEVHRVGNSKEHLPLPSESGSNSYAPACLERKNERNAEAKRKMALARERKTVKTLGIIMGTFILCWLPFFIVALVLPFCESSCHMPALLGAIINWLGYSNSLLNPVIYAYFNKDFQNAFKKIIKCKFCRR
test.name: Radioligand binding assay, 5-HT1A receptors
condition.notes: rat brain tissues; read-out: 5-HT1A Ki [nM] ± SEM

Completed entries (count: 2):
INSERT INTO measurements (compound, measure, experimental_value) VALUES
  ('Cc1ccc(CN2C3CCC2CC(NC(=O)c2ccc4ncccc4c2)C3)cc1 (stereo not drawn) [Compound 12k]', 'Ki', '511 nM'),
  ('COc1cc(C(=O)NC2CC3CCC(C2)N3Cc2cccnc2)nc2ccccc12 (stereo not drawn) [Compound 12s]', 'Ki', '1250 nM');

Exercise: Please look up its Ki: Cc1ccccc1CN1C2CCC1CC(NC(=O)c1ccc3ncccc3c1)C2 (stereo not drawn) [Compound 12c]
Key: 450 nM

Exercise: Need Ki, item O=C(NC1CC2CCC(C1)N2Cc1cccnc1)c1ccc2ccccc2n1 (stereo not drawn) [Compound 12p]
Key: 1080 nM

Exercise: Request the reported Ki associated with Cc1cccc(CN2C3CCC2CC(NC(=O)c2ccc4ncccc4c2)C3)c1 (stereo not drawn) [Compound 12g]
Key: 289 nM

Exercise: Please give the measured Ki for this compound: Cc1ccc(CN2C3CCC2CC(NC(=O)c2cnc4ccccc4c2)C3)cc1 (stereo not drawn) [Compound 12j]
Key: 164 nM
